target.desc: IDO (SKOV-3 cells) (Homo sapiens)
Construct: This assay utilised cancer cells which expressed either TDO or IDO; host or cells: SKOV-3 ovary adenocarcinoma cells, IFNγ-induced
Sequence (P14902 whole entry): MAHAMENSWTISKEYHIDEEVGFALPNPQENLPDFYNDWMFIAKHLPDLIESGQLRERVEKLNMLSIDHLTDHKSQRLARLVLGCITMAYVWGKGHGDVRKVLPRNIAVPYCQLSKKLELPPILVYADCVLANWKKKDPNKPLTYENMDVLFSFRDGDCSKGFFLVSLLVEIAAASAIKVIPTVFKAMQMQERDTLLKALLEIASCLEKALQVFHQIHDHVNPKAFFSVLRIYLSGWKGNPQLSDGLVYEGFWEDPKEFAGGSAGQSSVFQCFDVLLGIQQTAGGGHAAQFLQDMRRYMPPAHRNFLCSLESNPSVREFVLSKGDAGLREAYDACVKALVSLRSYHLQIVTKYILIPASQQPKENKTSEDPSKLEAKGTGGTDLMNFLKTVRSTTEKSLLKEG
assay: IDO cell-based assay (SKOV-3, IFNγ-induced), kynurenine production
test.conditions: SKOV-3 ovary adenocarcinoma cells, IFNγ 500 ng/ml, 500 μM L-Trp, 48 h, kynurenine by absorbance at 490 nm
Excerpt: Two different types of assay were employed: 1. A TDO and IDO biochemical coupled assay which utilised recombinantly produced and purified TDO and IDO enzymes in combination with the enzyme formamidase. This coupled enzyme system allowed conversion of N-formylkynurenine produced by TDO or IDO activity to kynurenine which was then quantified by fluorescence following addition of Erhlich's Reagent. 2. […]

{"compound": "CC(NC(=O)c1cc2cc(Cl)ccc2[nH]1)c1ccccc1 (centres unmarked)", "target.desc": "IDO (SKOV-3 cells) (Homo sapiens)", "IDO cellular assay (SKOV3) pIC50": "+++ (+++ = pIC50 ≥5.50)"}
{"compound": "CCn1cc(C2(NC(=O)c3cc4cc(Cl)ccc4[nH]3)CC2)cn1", "target.desc": "IDO (SKOV-3 cells) (Homo sapiens)", "IDO cellular assay (SKOV3) pIC50": "+++ (+++ = pIC50 ≥5.50)"}
{"compound": "C[C@H](NC(=O)c1cc2cc(Cl)ccc2[nH]1)c1ccccc1", "target.desc": "IDO (SKOV-3 cells) (Homo sapiens)", "IDO cellular assay (SKOV3) pIC50": "+++ (+++ = pIC50 ≥5.50)"}
